tested on: RSV strain A2; experiment: RSV antiviral cytoprotection assay in Hep2 cells (RSV-induced cytopathic effect, Cell TiterGlo); format: cell-based, Respiratory Syncytial Virus (RSV); conditions: human respiratory syncytial virus, HEp-2, 0.5 μM compound; RSV A2-infected Hep2 cells; % inhibition calculated from 4-parameter dose response curve, normalized to 0% and 100%; read-out: Percent inhibition at 0.5 μM
The entries below are paired with their reported inhibition at 0.5 µM.
Answer in %, number only, no unit symbol.

Some solved cases for reference:
Molecule	Units text	inhibition at 0.5 µM
Cc1cn2nc([C@@H]3CCCCN3C(=O)c3ccc4cccc(F)c4n3)cc2nc1N1C[C@@H](C#N)[C@@H](O)C1	%	56
Cc1cn2nc([C@@H]3CCCCN3C(=O)c3cc(Cl)ccc3NS(C)(=O)=O)cc2nc1N1C[C@@H](C#N)[C@@H](OC(=O)CN)C1	%	100
CCc1ccc(C(=O)N2CCCC[C@H]2c2cc3nc(N4CC[C@H](N)C4)c(C)cn3n2)nc1	%	36
Cc1cn2nc([C@@H]3CCCCN3C(=O)c3ccc(C#N)cc3F)cc2nc1N1CC[C@H](N)C1	%	79
Cc1ccc(Br)c(C(=O)N2CCCC[C@H]2c2cc3nc(N4CC[C@H](N)C4)c(C)cn3n2)c1	%	100

## Task // fetch RSV strain A2 inhibition at 0.5 µM for Cc1cc(F)c(F)cc1C(=O)N1CCCC[C@H]1c1cc2nc(N3C[C@@H](C#N)[C@@H](O)C3)c(C)cn2n1
## Result 100

## Task # get_value(readout= inhibition at 0.5 µM, system= RSV strain A2) for Cc1cn2nc([C@@H]3CCCCN3C(=O)c3cc(Cl)ccc3NS(C)(=O)=O)cc2nc1N1CC(C)NC(C)C1 (some centres unmarked)
## Result 63

## Task Param readout= inhibition at 0.5 µM; system= RSV strain A2; entry= Cc1cn2nc([C@@H]3CCCCN3C(=O)c3cc(Cl)ccc3NS(C)(=O)=O)cc2nc1N1C[C@@H](C#N)[C@@H](OC(=O)[C@H]2CCCN2)C1 ; returns value.
## Result 100

###

Documented inhibition at 0.5 µM across a set of compounds
tested on: RSV strain A2; assay: RSV antiviral cytoprotection assay in Hep2 cells (RSV-induced cytopathic effect, Cell TiterGlo); type: cell-based, Respiratory Syncytial Virus (RSV); details: human respiratory syncytial virus, HEp-2, 0.5 μM compound; RSV A2-infected Hep2 cells; % inhibition calculated from 4-parameter dose response curve, normalized to 0% and 100%; read-out: Percent inhibition at 0.5 μM
Number in %, nothing else.

1. Cc1cn2nc([C@@H]3CCCCN3C(=O)c3ccccc3Cl)cc2nc1N1C[C@@H](C#N)[C@@H](O)C1 100
2. Cc1cn2nc([C@@H]3CCCCN3C(=O)c3cccc(F)n3)cc2nc1N1CC[C@H](N)C1 96
3. Cc1cn2nc([C@@H]3CCCCN3C(=O)c3cc(F)cc4c3OCOC4)cc2nc1N1CC[C@H](N)C1 100
4. Cc1cn2nc([C@@H]3CCCCN3C(=O)c3c(Cl)c(C)nn3C)cc2nc1N1C[C@@H](C#N)[C@@H](O)C1 93
5. Cc1cn2nc([C@@H]3CCCCN3C(=O)c3c(F)cccc3F)cc2nc1N1CC[C@H](N)C1 100

## Task // inhibition at 0.5 µM lookup, key: Cc1cn2nc([C@@H]3CCCCN3C(=O)c3cc(Cl)ccc3NS(C)(=O)=O)cc2nc1N1C[C@H](N)C[C@@H]1C(=O)O
## Result 81

## Task Need inhibition at 0.5 µM of Cc1cn2nc([C@@H]3CCCCN3C(=O)c3cc(Cl)ccc3NS(C)(=O)=O)cc2nc1N[C@H]1C[C@H]2C[C@@H]1CN2 , thanks.
## Result 58

## Task I am curious: what inhibition at 0.5 µM value has been reported for Cc1cn2nc([C@@H]3CCCCN3C(=O)c3nc(Cl)ccc3Cl)cc2nc1N1C[C@@H](C#N)[C@@H](O)C1 ?
## Result 100

###

test system: RSV strain A2; assay: RSV antiviral cytoprotection assay in Hep2 cells (RSV-induced cytopathic effect, Cell TiterGlo); format: cell-based, Respiratory Syncytial Virus (RSV); conditions: human respiratory syncytial virus, HEp-2, 0.5 μM compound; RSV A2-infected Hep2 cells; % inhibition calculated from 4-parameter dose response curve, normalized to 0% and 100%; read-out: Percent inhibition at 0.5 μM
// inhibition at 0.5 µM lookup, one value per entry
Numbers only here, please. The scale is %.

Worked cases, inhibition at 0.5 µM given:
Compound	Measurement kind	Endpoint result
Cc1cn2nc([C@@H]3CCCCN3C(=O)c3ccc(C)c(F)c3F)cc2nc1N1C[C@@H](C#N)[C@@H](O)C1 [Compound 118]	inhibition at 0.5 µM	99
Cc1cn2nc([C@@H]3CCCCN3C(=O)c3cc(Cl)ccn3)cc2nc1N1CC[C@H](N)C1 [Compound 83]	inhibition at 0.5 µM	99

## Task Fill blank: measured inhibition at 0.5 µM of the compound Cc1cn2nc([C@@H]3CCCCN3C(=O)c3ccsc3)cc2nc1N1C[C@@H](C#N)[C@@H](O)C1 [Compound 181] is ____.
## Result 83

## Task I would be grateful if you could share the reported inhibition at 0.5 µM for Cc1cnc2c(C(=O)N3CCCC[C@H]3c3cc4nc(N5CC[C@H](N)C5)c(C)cn4n3)c(Cl)ccc2c1 [Compound 95] .
## Result 21

## Task Could you share which inhibition at 0.5 µM value was measured for Cc1cn2nc([C@@H]3CCCCN3C(=O)c3nc(Cl)ccc3Cl)cc2nc1N1CC[C@H](N)C1 [Compound 74] ?
## Result 100

## Task Please report the recorded inhibition at 0.5 µM for COc1ccc(S(N)(=O)=O)cc1C(=O)N1CCCC[C@H]1c1cc2nc(N3CC[C@H](N)C3)c(C)cn2n1 [Compound 29] .
## Result 71

## Task Quick one: inhibition at 0.5 µM for Cc1cn2nc([C@@H]3CCCCN3C(=O)c3c(C)cccc3C)cc2nc1N1CC[C@H](N)C1 [Compound 88] ?
## Result 100

###

A collection of compounds and their measured inhibition at 0.5 µM
tested on: RSV strain A2; test: RSV antiviral cytoprotection assay in Hep2 cells (RSV-induced cytopathic effect, Cell TiterGlo); assay type: cell-based, Respiratory Syncytial Virus (RSV); conditions: human respiratory syncytial virus, HEp-2, 0.5 μM compound; RSV A2-infected Hep2 cells; % inhibition calculated from 4-parameter dose response curve, normalized to 0% and 100%; read-out: Percent inhibition at 0.5 μM
# number only, unit % dropped from output

Some entries whose results are on file:
1. Cc1ccc(F)cc1C(=O)N1CCCC[C@H]1c1cc2nc(N3C[C@@H](C#N)[C@@H](O)C3)c(C)cn2n1 100
2. COc1cc2ccccc2cc1C(=O)N1CCCC[C@H]1c1cc2nc(N3CC[C@H](N)C3)c(C)cn2n1 88
3. Cc1cn2nc([C@@H]3CCCCN3C(=O)c3ncccc3F)cc2nc1N1CC[C@H](N)C1 98
4. Cc1cn2nc([C@@H]3CCCCN3C(=O)c3cccc4cn[nH]c34)cc2nc1N1C[C@@H](C#N)[C@@H](O)C1 98
5. Cc1cn2nc([C@@H]3CCCCN3C(=O)c3cc(F)cc4c3OCOC4)cc2nc1N1C[C@@H](C#N)[C@@H](O)C1 100

Next compound, inhibition at 0.5 µM to be filled in.
## Task Provide the documented inhibition at 0.5 µM with RSV strain A2 as the system for Cc1cn2nc([C@@H]3CCCCN3C(=O)c3cc(Cl)ccc3NS(C)(=O)=O)cc2nc1NCC1(N)CC1
## Result 100

###

system: RSV strain A2; assay: RSV antiviral cytoprotection assay in Hep2 cells (RSV-induced cytopathic effect, Cell TiterGlo); assay type: cell-based, Respiratory Syncytial Virus (RSV); details: human respiratory syncytial virus, HEp-2, 0.5 μM compound; RSV A2-infected Hep2 cells; % inhibition calculated from 4-parameter dose response curve, normalized to 0% and 100%; read-out: Percent inhibition at 0.5 μM
Measurement kind: inhibition at 0.5 µM (%)
Express the result in % but write the number alone.

Compound	inhibition at 0.5 µM [%]
Cc1cn2nc([C@@H]3CCCCN3C(=O)c3nn(C)c4ccccc34)cc2nc1N1C[C@@H](C#N)[C@@H](O)C1 [Compound 187]	100

## Task Consider the compound CNC(=O)[C@H]1CN(c2nc3cc([C@@H]4CCCCN4C(=O)c4cc(Cl)ccc4NS(C)(=O)=O)nn3cc2C)CCN1 [Compound 23] and give its measured inhibition at 0.5 µM.
## Result 48

## Task If you can, please state the reported inhibition at 0.5 µM value of CC(=O)Nc1ccc(C)cc1C(=O)N1CCCC[C@H]1c1cc2nc(N3CC(O)C(C#N)C3)c(C)cn2n1 (stereo partly drawn) [Compound 203] .
## Result 100

## Task Tell me the measured inhibition at 0.5 µM of Cc1cn2nc([C@@H]3CCCCN3C(=O)c3ccnn3CC(F)(F)F)cc2nc1N1C[C@@H](C#N)[C@@H](O)C1 [Compound 189] , please.
## Result 89

## Task Which inhibition at 0.5 µM reading was recorded for the compound Cc1ccc(Br)cc1C(=O)N1CCCC[C@H]1c1cc2nc(N3C[C@@H](C#N)[C@@H](O)C3)c(C)cn2n1 [Compound 112] ?
## Result 100

## Task Sample Cc1cn2nc([C@@H]3CCCCN3C(=O)c3csc4c3CCCC4)cc2nc1N1C[C@@H](C#N)[C@@H](O)C1 [Compound 183] — what was its inhibition at 0.5 µM?
## Result 100
